- Test system: H358 cells
- EXPERIMENT: Cell activity experiment: activity test of H358 cells (MTT, 5 days)
- Format: cell-based
- PARTICULARS: Homo sapiens, NCI-H358, 120 h, 5 days incubation, absorbance 492 nm
MEASUREMENT_LABEL: IC50 (nM)

Reference set (4 entries):
INSERT INTO results (smi, measurement_label, units_of_measure, reading) VALUES
  ('C=CC(=O)N1CCN(c2nc(OC[C@@H]3CCCN3C)nc3c(F)c(-c4cncc5c4CCCC5)ncc23)C[C@@H]1CC#N', 'IC50', 'nM', 25),
  ('C=CC(=O)N1CCN(c2nc(OC[C@@]34CCCN3C[C@H](F)C4)nc3c(OC4CC4)c(-c4c(C)ccc5[nH]ncc45)c(Cl)cc23)C[C@@H]1CC#N', 'IC50', 'nM', 0.3),
  ('C=CC(=O)N1CCN(c2nc(OC[C@@H]3C[C@@H](F)CN3C)nc3cc(-c4cccc5ccc(F)c(Cl)c45)ccc23)C[C@@H]1CC#N', 'IC50', 'nM', 8),
  ('C=CC(=O)N1CCN(c2nc(OC[C@@H]3CCCN3C)nc3c(F)c(-c4cncc5cccc(Cl)c45)ccc23)C[C@@H]1CC#N', 'IC50', 'nM', 4);

1: C=CC(=O)N1CCN(c2nc(OCC34CCCN3CCC4)nc3c(F)c(-c4cccc5cccc(Cl)c45)ccc23)C[C@@H]1CC#N
2: C=C(F)C(=O)N1CCN(c2nc(OC[C@@H]3CCCN3C)nc3cc(-c4cccc5c4CCCC5)ccc23)C[C@@H]1CC#N
Prompt: Of 1 and 2 , whose reported IC50 is the larger number? Please indicate the selected item by its label.
Completion: 2

---

- System: H358 cells
- EXPERIMENT: Cell activity experiment: activity test of H358 cells (MTT, 5 days)
- Assay type: cell-based
- PARTICULARS: 5 days incubation, absorbance 492 nm
MEASUREMENT_LABEL: IC50 (nM)

Reference set (3 entries):
INSERT INTO results (molecule, measurement_label, reading) VALUES
  ('C=C(F)C(=O)N1CCN(c2nc(OC[C@@]34CCCN3C[C@H](F)C4)nc3c(F)c(-c4cccc5c4CC4CC54)ccc23)C[C@@H]1CC#N (single isomer, unassigned) [Example 887]', 'IC50', 2.65),
  ('C=C(F)C(=O)N1CCN(c2nc(OC[C@@H]3CCCN3C)nc3c(F)c(-c4cccc5c4CC4CC54)ccc23)C[C@@H]1CC#N (some centres unmarked) [Example 872]', 'IC50', 8.4),
  ('C=CC(=O)N1CC[C@H]2[C@H]1CN2c1nc(OC[C@@]23CCCN2C[C@H](F)C3)nc2cc(-c3cccc4ccc(F)c(Cl)c34)c(Cl)cc12 [Example 475]', 'IC50', 25);

I: C=C(F)C(=O)N1CCN(c2nc(OC[C@@H]3CCCN3C)nc3c(F)c(-c4cccc5c4CC4CC54)ccc23)C[C@@H]1CC#N (single isomer, unassigned) [Example 884]
II: C=C(F)C(=O)N1CCN(c2nc(OC[C@@]34CCCN3C[C@H](F)C4)nc3c(F)c(-c4cccc5c4CC4CC54)ccc23)C[C@@H]1CC#N (single isomer, unassigned) [Example 888]
Prompt: Of I and II , whose reported IC50 is the larger number? Please indicate the selected item by its label.
Completion: I

---

- System: H358 cells
- EXPERIMENT: Cell activity experiment: activity test of H358 cells (MTT, 5 days)
- Format: cell-based
- PARTICULARS: Homo sapiens, NCI-H358, 120 h, 5 days incubation, absorbance 492 nm
pIC50: −log10 of the molar value.
MEASUREMENT_LABEL: pIC50

INSERT INTO assay_data (compound, tested_on, reading) VALUES
  ('C=CC(=O)N1CCN(c2nc(Oc3cccc4c3CCN(C)C4)nc3cc(-c4cccc5c4CCCC5)ccc23)C[C@@H]1CC#N', 'H358 cells', 6.54),
  ('C=CC(=O)N1CCN(c2nc(OCC34CCCN3C[C@H](F)C4)nc3cc(-c4cccc5c4CCCC5)ccc23)C[C@@H]1CC#N (stereo partly drawn)', 'H358 cells', 7.82);

I: C=CC(=O)N1CCN(c2nc(OC[C@@H]3CCCN3C)nc3c(F)c(-c4cccc5c4CCCC5)ncc23)C[C@@H]1CC#N
II: C=C(F)C(=O)N1CC[C@@H]2[C@H]1CN2c1nc(OC[C@@H]2CCCN2C)nc2c(F)c(-c3ccc(F)c4c3CCCC4)ncc12
III: C=C(F)C(=O)N1CCN(c2nc(OC[C@@]34CCCN3C[C@H](F)C4)nc3c(F)c(-c4cncc5cccc(Cl)c45)ccc23)C[C@@H]1CC#N
IV: C=C(F)C(=O)N1CCN(c2nc(OC[C@@H]3CCCN3C)nc3c(F)c(-c4cccc5c4CC4CC54)c(O)cc23)C[C@@H]1CC#N (stereo partly drawn)
Prompt: Endpoint returns the given compounds ordered by ascending pIC50. // rank by listing labels in the order requested
Completion: IV, II, I, III
(IV: 6.81, II: 7.40, I: 7.82, III: 8.40)

A: C=C(F)C(=O)N1CCN(c2nc(OCC34CCCN3CCC4)nc3cc(-c4cncc5c4CCCC5)ccc23)C[C@@H]1CC#N
B: C=C(F)C(=O)N1CCN(c2nc(OC[C@@]34CCCN3C[C@H](F)C4)nc3c(F)c(-c4cccc5c4[C@@H]4C[C@@H]4C5)ncc23)C[C@@H]1CC#N
Prompt: Kindly identify the item with the lower pIC50 figure among these two: A and B Please indicate the selected item by its label.
Completion: A

---

- Tested on: H358 cells
- EXPERIMENT: Cell activity experiment: activity test of H358 cells (MTT, 5 days)
- Type: cell-based
- PARTICULARS: Homo sapiens, NCI-H358, 120 h, 5 days incubation, absorbance 492 nm
MEASUREMENT_LABEL: IC50 (nM)

1: C=C(F)C(=O)N1CCN(c2nc(OCC34CCCN3CCC4)nc3cc(-c4cccc5c4CCCC5)ccc23)C[C@@H]1CC#N [Example 115]
2: C=CC(=O)N1CCN(c2nc(OCC3(CN4CCCC4)CC3)nc3c(F)c(-c4cccc5cccc(Cl)c45)ncc23)C[C@@H]1CC#N [Example 854]
3: C=CC(=O)N1CCN(c2nc(OCC34CCCN3CCC4)nc3cc(-c4cccc5c4CCCC5)ccc23)C[C@@H]1CC#N [Example 114]
Prompt: Sort the listed molecules above so the one with the largest IC50 comes first and the smallest comes last. // rank by listing labels in the order requested
Completion: 1, 3, 2
(1: 45 nM, 3: 20 nM, 2: 4.4 nM)

I: C=CC(=O)N1CCN(c2nc(OC[C@@H]3CCCN3C)nc3c(F)c(-c4ccc(F)c5c4CCCC5)ncc23)C[C@@H]1CC#N [Example 17]
II: C=CC(=O)N1CCN(c2nc(OC[C@@]34CCCN3C[C@H](F)C4)nc3c(F)c(-c4ccc(F)c5c4CCCC5)ncc23)C[C@@H]1CC#N [Example 23]
Prompt: Kindly identify the item with the lower IC50 figure among these two: I and II Please indicate the selected item by its label.
Completion: II

---

- System: H358 cells
- EXPERIMENT: Cell activity experiment: activity test of H358 cells (MTT, 5 days)
- Assay type: cell-based
- PARTICULARS: Homo sapiens, NCI-H358, 120 h, 5 days incubation, absorbance 492 nm
pIC50: −log10 of the molar value.
MEASUREMENT_LABEL: pIC50

a: C=C(F)C(=O)N1CCN(c2nc(OCC34CCCN3CCC4)nc3c(F)c(-c4cccc5c4CCCC5)ncc23)C[C@@H]1CC#N
b: C=C(F)C(=O)N1CCN(c2nc(OC[C@@H]3CCCN3C)nc3cc(-c4cccc5cccc(Cl)c45)ccc23)C[C@@H]1CC#N
Prompt: Of a and b , whose reported pIC50 is the larger number? Please indicate the selected item by its label.
Completion: a

---

- System: H358 cells
- EXPERIMENT: Cell activity experiment: activity test of H358 cells (MTT, 5 days)
- Format: cell-based
- PARTICULARS: Homo sapiens, NCI-H358, 120 h, 5 days incubation, absorbance 492 nm
pIC50: −log10 of the molar value.
MEASUREMENT_LABEL: pIC50

INSERT INTO measurements (molecule, reading) VALUES
  ('C=CC(=O)N1CC[C@@H]2[C@H]1CN2c1nc(OC[C@@]23CCCN2C[C@H](F)C3)nc2c(F)c(-c3ccc(F)c4c3CCCC4)ncc12', 8.10),
  ('C=C(F)C(=O)N1CCN(c2nc(OC[C@@]34CCCN3C[C@H](F)C4)nc3c(OC4CC4)c(-c4c(C)ccc5[nH]ncc45)c(Cl)cc23)C[C@@H]1CC#N', 9.40),
  ('C=CC(=O)N1CCN(c2nc(OCC34CCCN3C[C@H](F)C4)nc3cc(-c4cncc5cccc(Cl)c45)ccc23)C[C@@H]1CC#N (stereo partly drawn)', 8.52),
  ('C=CC(=O)N1CCN(c2c(CC#N)c(OCC34CCCN3CCC4)nc3cc(-c4cccc5ccc(F)c(Cl)c45)c(F)cc23)C[C@@H]1CC#N', 6.48);

P: C=CC(=O)N1CCN(c2nc(OC[C@@H]3CCCN3C)nc3c(F)c(-c4cccc5ccsc45)ncc23)C[C@@H]1CC#N
Q: C=CC(=O)N1CCN(c2nc(OCC34CCCN3CCC4)nc3c(F)c(-c4cncc5cccc(Cl)c45)ccc23)C[C@@H]1CC#N
Prompt: Kindly identify the item with the lower pIC50 figure among these two: P and Q Please indicate the selected item by its label.
Completion: P

P: C=CC(=O)N1CCN(c2nc(OC[C@@H]3C[C@@H](F)CN3C)nc3cc(-c4cccc5ccc(F)c(Cl)c45)c(Cl)cc23)C[C@@H]1CC#N
Q: C=CC(=O)N1CCN(c2nc(OCC34CCCN3CCC4)nc3c(F)c(-c4cncc5c4CCCC5)ncc23)C[C@@H]1CC#N
R: C=CC(=O)N1CCC2[C@H]1CN2c1nc(OC[C@@H]2CCCN2C)nc2c(F)c(-c3cccc4ccc(F)c(Cl)c34)ccc12 (stereo partly drawn)
S: C=C(F)C(=O)N1CCN(c2nc(OC[C@@]34CCCN3C[C@H](F)C4)nc3nc(-c4cccc5cccc(Cl)c45)ccc23)C[C@@H]1CC#N
Prompt: Endpoint returns the given molecules ordered by ascending pIC50. // rank by listing labels in the order requested
Completion: P, S, Q, R
(P: 7.15, S: 7.62, Q: 7.82, R: 8.22)

I: C=C(F)C(=O)N1CCN(c2nc(OC[C@@H]3CCCN3C)nc3c(F)c(-c4cncc5c4CCCC5)ncc23)C[C@@H]1CC#N
II: C=CC(=O)N1CCN(c2nc(OC[C@@H]3CCCN3C)nc3cc(-c4cccc5c4C4CC4C5)ccc23)C[C@@H]1CC#N (stereo partly drawn)
Prompt: Kindly identify the item with the lower pIC50 figure among these two: I and II Please indicate the selected item by its label.
Completion: I
